// provenance: patent US20210324080A1

# Lookup of reported MFI at 1.6 nM keyed by entry
molecular target: T1, monkey CTLA-4, full length, on transfected HEK293 cells (monkey); test: FACS, monkey CTLA-4 expressing cells
T1 construct: whole, on cells; also called cCTLA-4; HEK293-cCTLA-4
Just the number, please.

Solved cases below.
97A8D1 fully human CTLA-4 antibody (human IgG1, kappa) (antibody, V domains shown, also called mAb49; mAb049) VH: QVQLVESGGGVVQPGRSLRLSCVASGFTFNNYGMNWVRQAPGKGLEWVAVIWYGGRNKFYADSVKGRFTISRDNSKNTLYLEMNSLRAEDTAVYYCARADWGGWFDPWGQGTLVTVSS VL: EIVLTQSPGTLSLSPGERATLSCRASQSVSSTYLAWYQQKPGQAPRLLIHGAFSRATGIPDRFSGSGSGPDFTLTISRLEPEDFAVYYCQQYGTSPFTFGPGTKVDIK: 513
40C4C6 fully human CTLA-4 antibody (human IgG1, kappa) (antibody, V domains shown, also called mAb09; mAb009) VH: QVQLVESGGGVVQPGRSLRLSCAASGFTFSSYGMHWVRQAPGKGLEWVAVIWYDGRNKYYADSVKGRFTISRDNSKNTLYLQMNSLRAEDTAVYYCARASGSYSYYFDYWGQGTLVTVSS VL: DIQMTQSPSSLSASVGGRVTITCRASQSISSFLNWYQHELGKAPKLLIYGASSLQSGVPSRFSGSGSGTDFTLTISSLQPEDFATYYCQQTYSTPFTFGPGTKVDIK: 421

Looking up 92C8B6 fully human CTLA-4 antibody (human IgG1, kappa) (antibody, V domains shown, also called mAb42; mAb042) VH: QVQLVESGGGVVQPGRSLRLSCAASGFTFSNFGMHWVRQAPGKGLEWVAVIWYDGSNKYYADSVKGRFTISRDNSKNTLFLQMNGLRAEDTAVYYCAKGGILMAGTLDYWGQGTLVTVSS VL: DIQMTQSPSSLSASVGDRVTITCRASQSVSTYLNWYQQKPGKAPKLLIYAASSFQSGVPSRFSGSGSGTDFTLTISSLQPEDFATYFCQQSYSTPFTFGPGTKVDIK , I found its MFI at 1.6 nM recorded as 465

Looking up 31C12F3 fully human CTLA-4 antibody (human IgG1, kappa) (antibody, V domains shown, also called mAb010) VH: QVQLVESGGGVVQPGRSLILSCAASGFTFSSYGMHWVRQAPGKGLEWVAVVWYDGSNKYYADSVKGRFTISRDNSKNTLYLQMSSLRAEDTAVYYCARGGIVVPGLFEYWGQGSLVTVSS VL: DIQMTQSPSSLSASVGDRVAITCRTSQSISNLLNWYQQKPGKAPELLIYAPSSFQSGVPSRFRGSGSGTDFTLTISSLQPEDFATYYCQQSYSTPFTFGPGTKVDIK , I found its MFI at 1.6 nM recorded as 455
